- test-target: Bcr-abl (wt) (Homo sapiens, UniProt P00519)
- Sequence (P00519 118-553 limits assumed): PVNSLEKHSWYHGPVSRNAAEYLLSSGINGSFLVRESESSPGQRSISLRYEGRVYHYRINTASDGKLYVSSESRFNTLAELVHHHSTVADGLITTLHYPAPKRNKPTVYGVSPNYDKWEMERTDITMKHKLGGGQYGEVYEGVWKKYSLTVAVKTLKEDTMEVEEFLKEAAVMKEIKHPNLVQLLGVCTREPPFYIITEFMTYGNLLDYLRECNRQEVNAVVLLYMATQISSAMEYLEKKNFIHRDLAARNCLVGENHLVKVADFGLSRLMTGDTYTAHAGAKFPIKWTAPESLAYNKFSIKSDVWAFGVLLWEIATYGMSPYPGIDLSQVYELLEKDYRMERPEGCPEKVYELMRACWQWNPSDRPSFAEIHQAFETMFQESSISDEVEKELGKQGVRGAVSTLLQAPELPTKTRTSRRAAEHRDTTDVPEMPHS
- assay-protocol: Biochemical flash-plate based kinase assay, Bcr-abl (wt)
- assay-conditions: only a range over the listed compounds is given; read-out: Bcr-abl (wt) inhibition IC50
IC50 for assorted compounds

Take a look at these entries with their results.
compound	recorded-endpoint	experimental-result
Cc1ccc(NC(=O)c2ccc(/C=C/C(=O)NO)cc2)cc1Nc1nc(-c2cccnc2)cs1 [[19]]	IC50	2 to 39 µM
Cc1ccc(NCc2ccc(C(=O)Nc3ccccc3N)cc2)cc1Nc1nccc(-c2cccnc2)n1 [[15]]	IC50	2 to 39 µM

Now, please, on to the next compound.
Lookup: Can you share its IC50? I mean this compound: Cc1ccc(NC(=O)c2ccc(/C=C/C(=O)NO)s2)cc1Nc1nc(-c2cccnc2)cs1 [[33]]
Found: 2 to 39 µM

---

recorded-endpoint: melting point (°C)

compound	melting point [°C]
Cc1ccc(NC(=O)c2ccc(/C=C/C(=O)NO)s2)cc1Nc1nc(-c2cccnc2)cs1 [[33]]	241.6
Cc1ccc(NC(=O)c2ccc(C(=O)Nc3ccccc3N)cc2)cc1Nc1nc(-c2cccnc2)cs1 [[21]]	147.1
O=C(/C=C/c1ccc(C(=O)Nc2cccc(Nc3nc(-c4cccnc4)cs3)c2)s1)NO [[34]]	205.6

---

recorded-endpoint: melting point (°C)

compound	unit	melting point
Cc1ccc(NC(=O)c2ccc(C(=O)Nc3ccccc3N)s2)cc1Nc1nc(-c2cccnc2)cs1 [[27]]	°C	242.4
Cc1ccc(NC(=O)c2ccc(C(=O)NO)cc2)cc1Nc1nc(-c2cccnc2)cs1 [[20]]	°C	261

---

- System: cellular HDAC activity in HeLa cells
- assay-protocol: Quantification of cellular HDAC activity in HeLa cells
- Format: cell-based, human
- assay-conditions: 4 h compound incubation; for lists of compounds only a range is printed; read-out: Inhibition of cellular HDAC activity in HeLa cells IC50
recorded-endpoint: IC50 (nM)
Give a bare numeral; the unit nM is implied.

Lookup: Can you share its IC50? I mean this molecule: O=C(/C=C/c1cccc(-c2ccc3ncnc(Nc4ccc(OCc5cccc(F)c5)c(Cl)c4)c3c2)c1)NO [[9]]
Found: 430

---

recorded-endpoint: melting point

Take a look at these entries with their results.
compound	experimental-result
Cc1ccc(NC(=O)c2ccc(C(=O)Nc3ccccc3N)s2)cc1Nc1nccc(-c2cccnc2)n1 [[26]]	280.5 °C
Nc1ccccc1NC(=O)c1ccc(-c2ccc3ncnc(Nc4ccc(OCc5cccc(F)c5)c(Cl)c4)c3c2)o1 [[5]]	250 °C (dec.)
Cc1ccc(NCc2ccc(/C=C/C(=O)NO)cc2)cc1Nc1nccc(-c2cccnc2)n1 [[16]]	201 to 205 °C

Lookup: Can you share its melting point? I mean this compound: Nc1ccccc1NC(=O)c1ccc(C(=O)Nc2cccc(Nc3nc(-c4cccnc4)cs3)c2)cc1 (hydrate or solvate) [[18]]
Found: 224.8 to 224.9 °C

---

IC50 for assorted compounds
- test-target: recombinant HDAC1 isolated from HEK293 cells with heterologous HDAC1 expression (Homo sapiens)
- Construct: made in house
- Sequence (Q13547 whole entry): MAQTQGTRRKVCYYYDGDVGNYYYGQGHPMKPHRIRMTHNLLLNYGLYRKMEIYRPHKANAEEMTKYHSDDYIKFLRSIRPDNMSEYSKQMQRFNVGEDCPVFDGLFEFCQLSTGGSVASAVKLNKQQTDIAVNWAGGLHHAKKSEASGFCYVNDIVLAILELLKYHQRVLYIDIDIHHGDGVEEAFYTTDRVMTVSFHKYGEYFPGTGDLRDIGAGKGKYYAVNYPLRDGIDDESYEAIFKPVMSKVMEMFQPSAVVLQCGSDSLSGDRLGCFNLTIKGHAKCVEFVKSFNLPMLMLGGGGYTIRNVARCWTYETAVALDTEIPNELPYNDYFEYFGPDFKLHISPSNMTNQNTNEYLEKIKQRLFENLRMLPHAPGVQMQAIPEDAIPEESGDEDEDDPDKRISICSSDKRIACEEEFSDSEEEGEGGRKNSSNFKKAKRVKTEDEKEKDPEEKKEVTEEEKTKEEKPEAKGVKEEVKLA
- assay-protocol: Fluorimetric rHDAC1 activity assay
- Assay type: biochemical
- assay-conditions: only a range of IC50 over the compounds given; read-out: rHDAC1 inhibitory activity IC50
Structures can show the parent of a compound that is named as a salt.

Take a look at these entries with their results.
compound	recorded-endpoint	experimental-result
Nc1ccccc1NC(=O)CCc1ccc(-c2ccc3ncnc(Nc4ccc(OCc5cccc(F)c5)c(Cl)c4)c3c2)cc1 [[12]]	IC50	≥ 35.3 nM
O=C(NO)c1ccc(-c2ccc3ncnc(Nc4ccc(OCc5cccc(F)c5)c(Cl)c4)c3c2)o1 [[6], hydrochloride monohydrate]	IC50	≥ 35.3 nM
C#Cc1cccc(Nc2ncnc3cc(NC(=O)c4cccc(/C=C/C(=O)Nc5ccccc5N)c4)ccc23)c1 [[42]]	IC50	≥ 6.5 nM
Nc1ccccc1NC(=O)/C=C/c1ccc(-c2ccc3ncnc(Nc4ccc(OCc5cccc(F)c5)c(Cl)c4)c3c2)o1 [[13]]	IC50	≥ 35.3 nM
Cc1ccc(NCc2ccc(/C=C/C(=O)NO)cc2)cc1Nc1nccc(-c2cccnc2)n1 [[16]]	IC50	77 to 1400 nM
Cc1ccc(NC(=O)c2ccc(/C=C/C(=O)NO)cc2)cc1Nc1nc(-c2cccnc2)cs1 [[19]]	IC50	77 to 1400 nM
O=C(/C=C/c1ccc(-c2ccc3ncnc(Nc4ccc(OCc5cccc(F)c5)c(Cl)c4)c3c2)o1)NO [[2], hydrochloride monohydrate]	IC50	≥ 35.3 nM

Now, please, on to the next compound.
Lookup: Can you share its IC50? I mean this compound: CN(C(=O)c1ccc(C(=O)Nc2ccccc2N)cc1)c1ccc(Cl)c(Nc2nccc(-c3cccnc3)n2)c1 [[35]]
Found: 77 to 1400 nM
